Notes on Ki obtained with hQC (Homo sapiens (Human), UniProt Q16769).
Sequence (Q16769 29-361): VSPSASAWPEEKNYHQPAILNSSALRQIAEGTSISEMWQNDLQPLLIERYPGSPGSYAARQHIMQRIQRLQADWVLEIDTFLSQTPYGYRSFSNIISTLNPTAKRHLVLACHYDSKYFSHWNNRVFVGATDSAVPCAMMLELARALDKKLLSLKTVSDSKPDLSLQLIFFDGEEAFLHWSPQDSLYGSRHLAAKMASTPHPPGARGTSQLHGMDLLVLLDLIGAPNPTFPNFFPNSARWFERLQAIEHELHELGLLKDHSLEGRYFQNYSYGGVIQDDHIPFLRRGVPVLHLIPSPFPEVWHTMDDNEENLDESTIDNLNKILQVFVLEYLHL
READOUT: Ki

* COc1cccc(CCc2nnc(-c3ccc4[nH]cnc4c3)s2)c1 | 40 nM
* COc1ccc(Cn2cnnc2-c2ccc3[nH]cnc3c2)cc1 | 110 nM
* COc1ccc(CCc2nnc(-c3ccc4[nH]cnc4c3)o2)cc1Cl | 130 nM
* Fc1ccc(CCc2nnc(-c3ccc4[nH]cnc4c3)s2)cc1F | 140 nM
* COc1ccc(OC)c(CCc2nnc(-c3ccc4[nH]cnc4c3)s2)c1 | 80 nM
* COc1ccc(Cn2cnnc2-c2ccc3[nH]cnc3c2)cc1Cl | 230 nM
* c1ccc(SCc2nnc(-c3ccc4[nH]cnc4c3)s2)cc1 | 120 nM
* CSc1ccc(CCc2nnc(-c3ccc4[nH]cnc4c3)s2)cc1 | 80 nM

Data provenance is patent US9181233B2.
